ASSAY_EXPLANATION: qHTS for Inhibitors of human tyrosyl-DNA phosphodiesterase 1 (TDP1): qHTS in cells in absence of CPT; also: nearly all actives have a fitted effect of over 55% in size
TEST_CONDITIONS: DT40 Tdp1-/- hTDP1 cells, no CPT, ATP luminescence, 48 h
The campaign covered roughly 420,000 compounds. About 64,000 (15%) were called active. Inconclusive results (about 27%) are left out. Calls follow the shape of the dose curve; as a rule, active = well fitted inhibition curve with a large enough effect; inconclusive = small, poorly fitted or top-dose-only effect; inactive = flat fitted curve, though single readings scatter. A selection follows.
Classes to choose from: TRUE = active, FALSE = inactive

For orientation, consider the following solved cases.
>  <COMPOUND>
O=C(CCc1ccccc1)NNC(=O)c1ccc(Br)cc1

>  <QUALITATIVE_LABEL>
FALSE

$$$$
>  <COMPOUND>
Cc1c(O)cc(O)c2c(=O)c(-c3ccc(O)cc3)coc12

>  <QUALITATIVE_LABEL>
FALSE

$$$$
>  <COMPOUND>
Cc1coc2c1c(C)cc1oc(=O)c(CC(=O)NCC(=O)N[C@H](C(=O)O)C(C)C)c(C)c12

>  <QUALITATIVE_LABEL>
FALSE

$$$$
>  <COMPOUND>
CCOC(=O)CCc1c(C)c2ccc(OCc3nn[nH]n3)c(C)c2oc1=O

>  <QUALITATIVE_LABEL>
FALSE

$$$$
>  <COMPOUND>
CCC1OC(C2CC2)CC2=C1C(=O)OC(C)(C)O2 (stereo not drawn)

>  <QUALITATIVE_LABEL>
FALSE

$$$$

Qu. How was `COc1ccc(C(=O)NNC(=S)NC(=O)c2ccccc2)cc1` classified in this test?
Ans. TRUE

Qu. How was `COc1ccc(OCC(=O)Nc2ccc(NC(=O)c3ccco3)c(C)c2)cc1` classified in this test?
Ans. FALSE

Qu. How was `CCCC(=O)OCC(=O)Nc1cc(Cl)ccc1[N+](=O)[O-]` classified in this test?
Ans. FALSE

Qu. How was `C=CCN1C=C(C(=O)c2ccccc2)C(=O)CC1` classified in this test?
Ans. FALSE
